Values from a collection of fitness landscapes (doi:10.1126/science.1257360)

B1: PhoQ; a variant is named by its letters at X, in order, P23837 (parent)
chain: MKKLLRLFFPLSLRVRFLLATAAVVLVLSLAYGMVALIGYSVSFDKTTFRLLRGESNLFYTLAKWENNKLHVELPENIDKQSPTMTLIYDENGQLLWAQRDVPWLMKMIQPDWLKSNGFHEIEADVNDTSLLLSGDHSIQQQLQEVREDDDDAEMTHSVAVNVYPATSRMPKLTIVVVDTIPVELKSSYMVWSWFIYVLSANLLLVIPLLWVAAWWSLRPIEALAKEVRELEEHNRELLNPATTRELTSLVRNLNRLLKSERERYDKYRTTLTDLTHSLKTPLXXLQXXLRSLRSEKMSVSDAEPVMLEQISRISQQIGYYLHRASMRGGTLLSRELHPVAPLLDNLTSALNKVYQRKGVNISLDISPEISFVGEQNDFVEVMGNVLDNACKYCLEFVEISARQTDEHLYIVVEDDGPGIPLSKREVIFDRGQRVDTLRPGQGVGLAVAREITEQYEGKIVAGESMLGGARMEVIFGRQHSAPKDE

variants of: B1; experiment: enrichment ratio after two sorts for PhoP signalling (ratio (wild type AVST 3.29)); higher = more functional; details: with PhoP (E. coli)
Over roughly 140,000 sequences, “enrichment ratio after two sorts for PhoP signalling” has its median near 0; the highest 2% begin near 11. The full list was thinned out, with the highest values kept by preference.
PARAMETER: enrichment ratio

DTNW	≤ 0.25

input: Query: enrichment ratio; subject: VHCQ
output: ≤ 0.25

input: Another variant to check: THCQ
output: 14.3
